target: HIV-1 Env of PVO.04 (HIV-1); assay: cell-based or functional assay
RECORDED_ENDPOINT: neutralization IC50

BINDER	neutralization IC50
CAP256-VRC26.07 (antibody, V domains shown) VH: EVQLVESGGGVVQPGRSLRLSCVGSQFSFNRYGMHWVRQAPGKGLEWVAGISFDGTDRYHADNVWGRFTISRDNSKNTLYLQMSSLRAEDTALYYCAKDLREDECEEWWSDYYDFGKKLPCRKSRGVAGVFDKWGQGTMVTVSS VL: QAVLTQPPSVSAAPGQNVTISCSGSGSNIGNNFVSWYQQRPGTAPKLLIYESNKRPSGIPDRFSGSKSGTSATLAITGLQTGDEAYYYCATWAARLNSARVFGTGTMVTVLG	> 50 µg/mL
CAP256-VRC26.02 (antibody, V domains shown) VH: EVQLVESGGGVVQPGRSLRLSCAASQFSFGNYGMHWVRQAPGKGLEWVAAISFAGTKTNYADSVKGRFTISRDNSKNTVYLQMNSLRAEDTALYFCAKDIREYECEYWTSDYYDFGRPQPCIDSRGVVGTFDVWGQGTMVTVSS VL: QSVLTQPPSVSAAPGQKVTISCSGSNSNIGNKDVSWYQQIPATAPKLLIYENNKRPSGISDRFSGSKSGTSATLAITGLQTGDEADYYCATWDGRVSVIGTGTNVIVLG	7.98 µg/mL

// next item, neutralization IC50 requested
neutralization IC50 recorded for this binder, CAP256-VRC26.04 (antibody, V domains shown) VH: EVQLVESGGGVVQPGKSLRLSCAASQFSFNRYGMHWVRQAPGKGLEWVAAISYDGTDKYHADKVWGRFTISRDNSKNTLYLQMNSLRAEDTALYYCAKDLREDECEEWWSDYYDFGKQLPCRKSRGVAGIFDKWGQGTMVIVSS VL: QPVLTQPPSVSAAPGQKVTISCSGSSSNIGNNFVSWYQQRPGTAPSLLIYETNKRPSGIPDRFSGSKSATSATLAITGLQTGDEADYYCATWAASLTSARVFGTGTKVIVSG , is > 50 µg/mL

Numbers sourced from patent US20200199204A1.
